# Condition Description: buffer; pH 7.4; 200.0 µM
Just so you know, the groups by solubility kinetic go like this: low = under 4 µg/mL, mid = from 4 µg/mL up to 40 µg/mL, high = 40 µg/mL and over

Completed entries (count: 5):
[
  {
    "Compound": "COc1ccc(C)cc1NC(=O)Nc1ccccc1SC",
    "Assigned Category": "low"
  },
  {
    "Compound": "CC(C)[C@H](NC(=O)c1ccccc1F)C(=O)NC1CCCCC1",
    "Assigned Category": "high"
  },
  {
    "Compound": "CCCCC(=O)Nc1cnc(NC(=O)c2cccs2)cc1C",
    "Assigned Category": "high"
  },
  {
    "Compound": "C=CCOc1c(CNc2ccc3[nH]c(=O)[nH]c3c2)cccc1OC",
    "Assigned Category": "high"
  },
  {
    "Compound": "CCCCOc1ccc(-c2ncc(N)cn2)cc1",
    "Assigned Category": "mid"
  }
]

-- ask Which bin, given its solubility kinetic, does Cc1cccc(NC(=O)Nc2ccc(Br)cc2)n1 occupy?
-- reply low

-- ask Which bin, given its solubility kinetic, does CCn1c(SCc2cccc(OC)c2)nc2ccccc2c1=O occupy?
-- reply low

-- ask Which bin, given its solubility kinetic, does O=C(NCC(=O)N1CCOCC1)OCc1ccccc1 occupy?
-- reply high

-- ask Which bin, given its solubility kinetic, does Cl.Oc1ccc(CCNc2c3ccccc3nc3ccccc23)cc1O occupy?
-- reply high

-- ask Which bin, given its solubility kinetic, does O=c1c2ccccc2[nH]c(=S)n1Cc1ccc2c(c1)OCO2 occupy?
-- reply low

-- ask Which bin, given its solubility kinetic, does CN(C(=O)CSc1cc(Cl)ccc1Cl)C1CCS(=O)(=O)C1 (stereo not given) occupy?
-- reply high

-- ask Which bin, given its solubility kinetic, does COc1cc2c(cc1OC)C(c1cccc(Cl)c1)CC(=O)N2 (stereo not given) occupy?
-- reply mid

-- ask Which bin, given its solubility kinetic, does COc1ccc(NC(=O)c2ccc(Oc3ncccn3)cc2)cc1 occupy?
-- reply mid

-- ask Which bin, given its solubility kinetic, does Cc1ccc(O)c(NC(=O)c2ccccc2-c2ccccc2C(=O)O)c1 occupy?
-- reply high

-- ask Which bin, given its solubility kinetic, does CC(C)c1cccc(C(C)C)c1NC(=O)c1ccccc1 occupy?
-- reply low

-- ask Which bin, given its solubility kinetic, does O=C(CN1CCN(c2ccc([N+](=O)[O-])cc2Cl)CC1)N1CCOCC1 occupy?
-- reply high

###

# Condition Description: buffer; pH 7.4; 200.0 µM
Decide using solubility kinetic: a value greater than or equal to 20 µg/mL is 1.0, a smaller one is 0.0.

[
  {
    "Molecule": "CC1=C(C(=O)OCc2ccccc2)C(c2ccccc2)NC(=O)N1 (configuration not stated)",
    "Assigned Category": 0.0
  },
  {
    "Molecule": "N#Cc1ccc(C(=O)NC23CC4CC(CC(C4)C2)C3)cc1",
    "Assigned Category": 0.0
  },
  {
    "Molecule": "COc1cc(/C=C/C(=O)OCC(=O)NC2CCCCCCC2)ccc1O",
    "Assigned Category": 1.0
  },
  {
    "Molecule": "O=S(=O)(c1ccc(F)c(F)c1)N1CCN(c2ncccn2)CC1",
    "Assigned Category": 0.0
  }
]

-- ask Hello, I need to know if CSc1nc2ccccc2c(=O)n1C1CCCCC1 has measured solubility kinetic not below 20 µg/mL. Thanks!
-- reply 0.0

-- ask Hello, I need to know if NC(=O)COC(=O)c1ccc2noc(-c3ccccc3)c2c1 has measured solubility kinetic not below 20 µg/mL. Thanks!
-- reply 1.0

###

# Condition Description: buffer; pH 7.4; 200.0 µM
Readout Type: solubility kinetic (µg/mL)
Could you give me the number in µg/mL? Just the number is fine.

[
  {
    "Molecule": "CC(C)c1ccc(OCC(O)CN2CCCC2)cc1.Cl (stereo unspecified)",
    "Readout Value": 43.8
  },
  {
    "Molecule": "C=CCSc1nc2c(c(=O)[nH]c(=O)n2C)n1Cc1ccccc1",
    "Readout Value": 3.9
  }
]

Could you now look at the following molecule, please?
-- ask Need solubility kinetic of O=C(NC(=S)/C(=C1\CCCCCN1)[N+](=O)[O-])c1ccccc1 , thanks.
-- reply 44.9

###

# Condition Description: buffer; pH 7.4; 200.0 µM
Each entry below carries its recorded solubility kinetic.
Could you give me the number in µg/mL? Just the number is fine.

Answered cases to consult:
[
  {
    "Compound": "NS(=O)(=O)c1ccc(Sc2ccc3c(c2)CCC3)nc1",
    "Unit Of Measure": "µg/mL",
    "solubility kinetic": 2.5
  },
  {
    "Compound": "Cn1c(C(=O)c2ccccc2)nc2ccccc21",
    "Unit Of Measure": "µg/mL",
    "solubility kinetic": 24
  },
  {
    "Compound": "COC(=O)C1=C(C)N(C)C(=O)NC1c1c(OC)ccc2ccccc12 (stereo unspecified)",
    "Unit Of Measure": "µg/mL",
    "solubility kinetic": 5.4
  },
  {
    "Compound": "CC(=O)c1cc2c(cc1NC(=O)C1CN(C(C)=O)c3ccccc3O1)OCO2 (stereo unspecified)",
    "Unit Of Measure": "µg/mL",
    "solubility kinetic": 6.3
  },
  {
    "Compound": "CCOCc1c(C(=O)NCC(c2ccco2)N2CCCC2)oc2ccccc12 (stereo unspecified)",
    "Unit Of Measure": "µg/mL",
    "solubility kinetic": 56.2
  }
]

-- ask Need solubility kinetic of N/C(=N\O)c1ccc(Oc2ccccc2Cl)c([N+](=O)[O-])c1 , thanks.
-- reply 44.1

-- ask Need solubility kinetic of COc1ccccc1-n1c(-c2ccc(C)cc2)nc2ccccc2c1=O , thanks.
-- reply 3.3

-- ask Need solubility kinetic of O=C(COC(=O)/C=C/c1ccccc1)NC(=O)NC1CCCCC1 , thanks.
-- reply 8.8

###

# Condition Description: buffer; pH 7.4; 200.0 µM
Decide using solubility kinetic: a value greater than or equal to 30 µg/mL is Y, a smaller one is N.

Completed entries (count: 6):
[
  {
    "Compound": "CC1(C)CC(=O)C2=C(C1)OC(N)=C([N+](=O)[O-])C2c1ccc(F)cc1 (centres undefined)",
    "Assigned Category": "Y"
  },
  {
    "Compound": "COc1cc(SC)ccc1C(=O)NCCN1CCOCC1",
    "Assigned Category": "Y"
  },
  {
    "Compound": "Cc1[nH]c2ccccc2c1/C=C(\\C#N)C(=O)NCC1CCCO1 (centres undefined)",
    "Assigned Category": "N"
  },
  {
    "Compound": "Cc1ccc(C(O)Cn2cc([N+](=O)[O-])nc2C)cc1 (centres undefined)",
    "Assigned Category": "Y"
  },
  {
    "Compound": "O=C1Nc2c(ccc(Cl)c2Cl)C(=O)C1(F)c1ccccc1 (centres undefined)",
    "Assigned Category": "N"
  },
  {
    "Compound": "COCCCN1C(=O)CS/C1=N\\S(=O)(=O)c1ccccc1",
    "Assigned Category": "Y"
  }
]

-- ask Hello, I need to know if O=C(O)c1ccc(NCCC2=CCCCC2)c([N+](=O)[O-])c1 has measured solubility kinetic not below 30 µg/mL. Thanks!
-- reply Y

-- ask Hello, I need to know if Cc1ccc(N(Cc2ccccc2O)C(=O)c2ccccc2F)cc1 has measured solubility kinetic not below 30 µg/mL. Thanks!
-- reply N

-- ask Hello, I need to know if C#CCOC(=O)C[N+](C)(C)CC=C.[Cl-] has measured solubility kinetic not below 30 µg/mL. Thanks!
-- reply Y

-- ask Hello, I need to know if O=C(NCCNC(=O)c1cc(Cl)ccc1Cl)c1ccco1 has measured solubility kinetic not below 30 µg/mL. Thanks!
-- reply Y

-- ask Hello, I need to know if COc1ccc(NC2CC(=O)N(c3cc([N+](=O)[O-])ccc3C)C2=O)cc1 (centres undefined) has measured solubility kinetic not below 30 µg/mL. Thanks!
-- reply Y

-- ask Hello, I need to know if Cc1cc(NC(=O)c2cccc(C)c2[N+](=O)[O-])no1 has measured solubility kinetic not below 30 µg/mL. Thanks!
-- reply N

-- ask Hello, I need to know if O=C1NC(=Nc2ccccc2)SC1Cc1ccccc1 (centres undefined) has measured solubility kinetic not below 30 µg/mL. Thanks!
-- reply N

-- ask Hello, I need to know if Cc1ccc(NC(=O)c2cc(F)c(F)cc2Cl)nc1 has measured solubility kinetic not below 30 µg/mL. Thanks!
-- reply N

-- ask Hello, I need to know if C=CCn1c(SCC(=O)NCC)nc2sc3c(c2c1=O)CCC3 has measured solubility kinetic not below 30 µg/mL. Thanks!
-- reply Y

-- ask Hello, I need to know if NS(=O)(=O)c1ccc(OC(=O)CNC(=O)OCc2ccccc2)cc1 has measured solubility kinetic not below 30 µg/mL. Thanks!
-- reply Y
